Biological target: UniProt P35354
Sequence (P35354 18-604): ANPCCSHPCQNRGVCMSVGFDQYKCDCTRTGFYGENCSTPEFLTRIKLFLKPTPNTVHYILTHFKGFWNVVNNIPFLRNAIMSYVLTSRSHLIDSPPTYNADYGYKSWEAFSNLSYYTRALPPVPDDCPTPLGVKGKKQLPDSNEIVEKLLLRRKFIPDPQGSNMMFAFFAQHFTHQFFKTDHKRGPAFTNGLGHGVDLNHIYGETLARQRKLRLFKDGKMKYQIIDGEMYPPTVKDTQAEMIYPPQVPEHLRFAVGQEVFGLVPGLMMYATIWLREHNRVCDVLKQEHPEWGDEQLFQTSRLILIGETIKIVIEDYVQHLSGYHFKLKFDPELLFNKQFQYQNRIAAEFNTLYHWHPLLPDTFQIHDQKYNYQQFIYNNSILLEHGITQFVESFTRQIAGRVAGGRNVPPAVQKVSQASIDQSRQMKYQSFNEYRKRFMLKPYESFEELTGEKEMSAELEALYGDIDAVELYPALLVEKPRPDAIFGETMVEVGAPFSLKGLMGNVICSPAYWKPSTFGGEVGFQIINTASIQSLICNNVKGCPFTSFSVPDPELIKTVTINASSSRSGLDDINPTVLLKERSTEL
Experiment: Human whole blood assay, COX-2 (LPS-induced PGE2 production)
Type: cell-based
Set-up: incubation of human whole blood with LPS, which induces COX-2; endogenous in cells; host or cells: fresh heparinized whole blood of human volunteers, LPS-stimulated
Details: LPS-induced PGE2, 24 hours at 37° C, read-out: COX-2 (IC50) HWB
quantity-name: pIC50
# reply with the number alone; pIC50 is -log10 of concentration in mol/L

Per the records, this molecule ( C[C@H](O)[C@@H](C)OC1=C(c2ccc(S(C)(=O)=O)cc2)C(C)(C)OC1=O (relative stereo) ) has pIC50 equal to 6.05

# credit: patent US6071954A
